target.under.test: ADP-ribosyl cyclase/cyclic ADP-ribose hydrolase 1 (Homo sapiens) (UniProt P28907)
Sequence (P28907 whole entry): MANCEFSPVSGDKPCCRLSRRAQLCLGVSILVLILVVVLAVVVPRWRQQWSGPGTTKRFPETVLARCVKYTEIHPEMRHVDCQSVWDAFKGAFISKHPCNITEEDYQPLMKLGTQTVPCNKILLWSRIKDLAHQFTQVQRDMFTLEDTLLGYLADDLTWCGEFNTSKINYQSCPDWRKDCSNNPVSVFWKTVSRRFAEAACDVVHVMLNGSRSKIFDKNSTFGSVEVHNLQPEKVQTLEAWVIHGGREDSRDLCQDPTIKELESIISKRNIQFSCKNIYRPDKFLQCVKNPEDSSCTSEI
assay.details: Inhibition of human CD38 at 100 uM by HPLC analysis relative to control
Listing: inhibition of selected compounds
Hi! Could you send only the number? It should be in %, unit omitted.

Examples from the recorded data:
# test.smiles, uom, value
rows = [
    ("Cc1occc1C(=O)N/N=C\\c1cc(Cl)ccc1O", "%", 0),
    ("Cc1occc1C(=O)NNCc1ccccc1O", "%", 0),
    ("COc1cc(O)c(/C=N\\NC(=O)c2ccoc2C)c(OC)c1", "%", 0),
]

[Q] Item: "COc1ccccc1/C=N\NC(=O)c1ccoc1C" Test system: ADP-ribosyl cyclase/cyclic ADP-ribose hydrolase 1 (Homo sapiens) (UniProt P28907) Read-out: inhibition Value: ?
[A] 0

[Q] Find inhibition (ADP-ribosyl cyclase/cyclic ADP-ribose hydrolase 1 (Homo sapiens) (UniProt P28907)) for the entry "Cc1occc1C(=O)N/N=C\c1ccccc1O"
[A] 20

[Q] Can you look up inhibition on ADP-ribosyl cyclase/cyclic ADP-ribose hydrolase 1 (Homo sapiens) (UniProt P28907) for "Cc1occc1C(=O)NNC(=O)c1cc(Cl)ccc1O" ?
[A] 6.7
